Listed here: molecules with reported pKi for hCA II (Homo sapiens, UniProt P00918).
Worth noting: pKi values are minus log10 of concentrations stated in mol/L.

Check out these entries, answers already filled in.
{"columns": ["smiles.record", "recorded.metric", "value"],
 "data": [
  ["CCCC(=O)NS(=O)(=O)c1ccc(-c2nnc(SCC)o2)cc1", "pKi", 7.63],
  ["CCCCCCCCC(=O)NS(=O)(=O)c1ccc(-c2nnc(SCC)o2)cc1", "pKi", 6.95],
  ["CCSc1nnc(-c2ccc(S(=O)(=O)NC(=O)c3ccccc3)cc2)o1", "pKi", 8.03],
  ["CCCCC(=O)NS(=O)(=O)c1ccc(-c2nnc(SCC)o2)cc1", "pKi", 7.43],
  ["CCCCCCCCCCCC(=O)NS(=O)(=O)c1ccc(-c2nnc(SCC)o2)cc1", "pKi", 7.53]
]}

Requested field: pKi. Item: "CCCCCCCC(=O)NS(=O)(=O)c1ccc(-c2nnc(SCC)o2)cc1" 6.92

Data request, read-out pKi, for "CCCCCCC(=O)NS(=O)(=O)c1ccc(-c2nnc(SCC)o2)cc1" 7.51

Requested field: pKi. Item: "CCSc1nnc(-c2ccc(S(=O)(=O)NC(=O)c3ccc(C)cc3)cc2)o1" 7.75

Recorded pKi of "CCCCCC(=O)NS(=O)(=O)c1ccc(-c2nnc(SCC)o2)cc1" , please. 7.53
